Record form. Attribute: IC50, neutralization of TB40/E infection of MRC-5. Fill in for each entry.
- EXPERIMENTAL_SYSTEM: gH of HCMV strain TB40/E (human cytomegalovirus strain TB40/E)
- ASSAY_OVERVIEW: cell-based or functional assay
Your answer should be a plain number; it is taken to be in µg/mL.

Briefly, IC50, neutralization of TB40/E infection of MRC-5 measured for 2-80 (antibody, V domains shown, also called NAb 2-80) VH: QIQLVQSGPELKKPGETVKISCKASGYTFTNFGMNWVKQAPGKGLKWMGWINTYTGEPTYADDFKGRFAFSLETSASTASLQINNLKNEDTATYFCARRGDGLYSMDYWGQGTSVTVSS VL: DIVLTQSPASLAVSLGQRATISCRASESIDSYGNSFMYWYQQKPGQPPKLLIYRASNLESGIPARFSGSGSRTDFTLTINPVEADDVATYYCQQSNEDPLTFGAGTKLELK : 1.6

IC50, neutralization of TB40/E infection of MRC-5 in this record for 62-11 (antibody, V domains shown, also called NAb 62-11) VH: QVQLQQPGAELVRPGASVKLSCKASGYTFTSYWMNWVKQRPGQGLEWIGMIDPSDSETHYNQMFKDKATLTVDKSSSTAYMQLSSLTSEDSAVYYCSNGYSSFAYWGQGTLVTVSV VL: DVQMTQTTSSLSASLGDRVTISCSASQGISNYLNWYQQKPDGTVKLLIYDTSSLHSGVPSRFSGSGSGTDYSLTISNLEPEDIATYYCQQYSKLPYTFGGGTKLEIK : 0.182

The reported value for 21E9 (antibody, V domains shown, also called NAb 21E9) VH: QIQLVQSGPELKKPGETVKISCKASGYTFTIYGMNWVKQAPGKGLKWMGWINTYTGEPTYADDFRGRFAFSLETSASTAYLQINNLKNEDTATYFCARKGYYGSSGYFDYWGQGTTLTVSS VL: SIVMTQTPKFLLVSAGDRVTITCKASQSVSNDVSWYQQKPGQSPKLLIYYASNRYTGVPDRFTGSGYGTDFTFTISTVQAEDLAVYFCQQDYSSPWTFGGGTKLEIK in terms of IC50, neutralization of TB40/E infection of MRC-5 is 5.78

For record 62-100 (antibody, V domains shown, also called NAb 62-100) VH: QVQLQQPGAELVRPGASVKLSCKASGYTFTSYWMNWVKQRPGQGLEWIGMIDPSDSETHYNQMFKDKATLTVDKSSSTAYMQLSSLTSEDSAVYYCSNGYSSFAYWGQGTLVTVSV VL: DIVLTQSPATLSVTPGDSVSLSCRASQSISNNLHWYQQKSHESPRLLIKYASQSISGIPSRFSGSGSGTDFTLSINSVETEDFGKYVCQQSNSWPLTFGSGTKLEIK the listed IC50, neutralization of TB40/E infection of MRC-5 is 0.293

Source: patent US20180230200A1
